Where do the numbers come from? From the supplement of paper PMC10065799.

# test system: EPHB1 (UniProt P54762)
# Sequence (P54762 whole entry, looked up): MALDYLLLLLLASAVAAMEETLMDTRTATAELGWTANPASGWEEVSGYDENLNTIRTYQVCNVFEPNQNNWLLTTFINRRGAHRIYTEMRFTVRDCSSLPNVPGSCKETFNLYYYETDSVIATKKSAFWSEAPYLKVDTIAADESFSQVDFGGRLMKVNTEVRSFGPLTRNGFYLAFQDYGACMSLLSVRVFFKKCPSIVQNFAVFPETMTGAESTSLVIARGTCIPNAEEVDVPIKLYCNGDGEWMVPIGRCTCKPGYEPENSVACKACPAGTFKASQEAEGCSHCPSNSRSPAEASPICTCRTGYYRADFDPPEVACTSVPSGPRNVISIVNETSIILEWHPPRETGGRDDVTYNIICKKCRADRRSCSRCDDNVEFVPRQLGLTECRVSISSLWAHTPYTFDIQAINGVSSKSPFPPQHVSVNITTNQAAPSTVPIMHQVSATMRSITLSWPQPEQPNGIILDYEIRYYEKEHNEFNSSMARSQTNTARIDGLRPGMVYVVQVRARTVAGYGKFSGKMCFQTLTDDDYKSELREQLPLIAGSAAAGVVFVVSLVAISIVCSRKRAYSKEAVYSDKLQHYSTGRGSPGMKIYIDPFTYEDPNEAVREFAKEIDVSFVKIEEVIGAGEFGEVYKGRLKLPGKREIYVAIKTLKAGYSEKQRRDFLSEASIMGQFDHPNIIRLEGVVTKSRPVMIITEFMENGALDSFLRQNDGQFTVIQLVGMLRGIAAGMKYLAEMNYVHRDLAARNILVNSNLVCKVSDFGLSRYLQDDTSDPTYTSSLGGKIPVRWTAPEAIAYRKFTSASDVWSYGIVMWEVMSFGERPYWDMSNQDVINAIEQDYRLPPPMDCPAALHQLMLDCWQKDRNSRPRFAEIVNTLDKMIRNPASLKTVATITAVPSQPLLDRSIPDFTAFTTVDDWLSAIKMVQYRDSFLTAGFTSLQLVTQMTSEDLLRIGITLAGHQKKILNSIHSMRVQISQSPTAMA
# protocol summary: phosphorylation enrichment, bacterial display (enrichment ratio); higher = better substrate or ligand; peptides without Tyr show the background

sequence	test system	phosphorylation enrichment
PRSRSYSSTSI [REPS2_Y462]	EPHB1 (UniProt P54762)	0.538
ATPKGYETDAS [OTC_Y223_P225T]	EPHB1 (UniProt P54762)	0.502
DASAVYLHDFQ [PLCG2_Y242]	EPHB1 (UniProt P54762)	0.528
IWGKKYPTCNS [PTPRZ1_Y53_N48I]	EPHB1 (UniProt P54762)	0.441
TVVGLYQKSSL [MYH7_Y609]	EPHB1 (UniProt P54762)	0.567
HCHEGYVLHGA [SVEP1_Y2921_I2922V]	EPHB1 (UniProt P54762)	0.915
LRFDVYGGENE [STOX1_Y610_E608D_YF]	EPHB1 (UniProt P54762)	0.596
LGSNTYPFLLM [SAG_Y120_T125M]	EPHB1 (UniProt P54762)	0.835
TNEYEYDELIV [TGM1_Y136_D132N]	EPHB1 (UniProt P54762)	0.814
EFGRRYGFSCQ [CCDC93_Y209_R213C_YF]	EPHB1 (UniProt P54762)	0.539
KVIDMYLMGCF [GABRB2_Y308_A304V]	EPHB1 (UniProt P54762)	0.636
LWPIWYSCHRP [MRGPRX1_Y130_R131S]	EPHB1 (UniProt P54762)	0.83
CGTPDYIDPEI [PRKCG_Y521_A523D]	EPHB1 (UniProt P54762)	1.1
EADRKYEEVAR [TPM3_Y163]	EPHB1 (UniProt P54762)	0.764
RRIEKYVDQGK [IRAK3_Y61_H57R]	EPHB1 (UniProt P54762)	0.615
YQLPYYNTVPS [BMPR1A_Y458_M460T]	EPHB1 (UniProt P54762)	0.642
LVPPRYARSEI [PKP2_Y194]	EPHB1 (UniProt P54762)	0.597

---

# test system: Grb2 SH2 (UniProt P62993)
# Sequence (P62993 whole entry, looked up): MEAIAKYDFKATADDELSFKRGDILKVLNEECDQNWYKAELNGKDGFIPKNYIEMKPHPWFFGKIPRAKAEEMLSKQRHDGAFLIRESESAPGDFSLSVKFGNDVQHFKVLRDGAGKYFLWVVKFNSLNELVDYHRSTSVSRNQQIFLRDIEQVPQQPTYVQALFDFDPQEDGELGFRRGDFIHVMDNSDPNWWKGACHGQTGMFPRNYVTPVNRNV
# protocol summary: SH2 binding enrichment of the phosphorylated peptide, bacterial display (enrichment ratio); higher = better substrate or ligand; peptides without Tyr show the background
# Lookup of reported SH2 binding enrichment keyed by entry

sequence	SH2 binding enrichment
ADRSCYDLSCH [GARS1_Y467]	0.79
LEGEEYRMSGE [KRT3_Y511]	0.908
SPFAVYRFFTF [RPGRIP1_Y826_YF]	0.689
DYGSGYPNDPK [RNASEH2A_Y210]	0.699

---

# test system: Fyn (UniProt P06241)
# Sequence (P06241 whole entry, looked up): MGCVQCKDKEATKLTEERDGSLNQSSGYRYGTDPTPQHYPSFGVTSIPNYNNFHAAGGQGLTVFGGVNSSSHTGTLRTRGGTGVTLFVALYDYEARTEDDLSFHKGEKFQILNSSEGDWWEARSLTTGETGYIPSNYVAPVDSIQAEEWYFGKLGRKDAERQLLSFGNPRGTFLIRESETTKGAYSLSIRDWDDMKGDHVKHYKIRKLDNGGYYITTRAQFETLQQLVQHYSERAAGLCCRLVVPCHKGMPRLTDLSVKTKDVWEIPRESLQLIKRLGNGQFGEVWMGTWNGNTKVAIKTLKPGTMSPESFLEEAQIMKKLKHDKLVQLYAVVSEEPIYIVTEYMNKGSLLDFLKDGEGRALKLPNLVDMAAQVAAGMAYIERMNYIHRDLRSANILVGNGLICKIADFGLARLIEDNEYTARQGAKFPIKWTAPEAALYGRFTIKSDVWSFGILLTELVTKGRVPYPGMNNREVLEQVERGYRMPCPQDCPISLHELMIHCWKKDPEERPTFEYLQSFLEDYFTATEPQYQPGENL
# protocol summary: phosphorylation enrichment, bacterial display (enrichment ratio); higher = better substrate or ligand; peptides without Tyr show the background
# Lookup of reported phosphorylation enrichment keyed by entry

sequence	phosphorylation enrichment
CTTSHYNYMCN [TP53_Y234_I232S]	0.49
EGLKVYINGTL [ADGRD1_Y183_V184I]	0.401
AEFGLYRAMVR [VSX2_Y222_G223R_YF]	0.821
GMTLSYLFREL [NDUFS8_Y74_P79L]	0.451
PLLEYYRDIFT [CDAN1_Y713]	0.704
QQLQGYVPSNY [FRK_Y99_I100V]	0.486
RQGKDYIGAIP [KDR_Y951_V952I]	0.715
TLKDVYDDGKF [RPS6KA3_Y483_YF]	0.548
VVQGIYGYHHH [UFSP2_Y285_Y290H]	11.2
IVWDSYTTNKV [GNB3_Y85]	0.546
QELRRYLKSSV [MICA_Y194_G198S]	0.36
DEEYEYMNRRR [ERBB3_Y1199]	0.483
